So I've got a bunch of compounds here, and I need their %max values.
- target-desc: Muscarinic acetylcholine receptor M1 (Rattus norvegicus) (UniProt P08482)
- Sequence (P08482 whole entry): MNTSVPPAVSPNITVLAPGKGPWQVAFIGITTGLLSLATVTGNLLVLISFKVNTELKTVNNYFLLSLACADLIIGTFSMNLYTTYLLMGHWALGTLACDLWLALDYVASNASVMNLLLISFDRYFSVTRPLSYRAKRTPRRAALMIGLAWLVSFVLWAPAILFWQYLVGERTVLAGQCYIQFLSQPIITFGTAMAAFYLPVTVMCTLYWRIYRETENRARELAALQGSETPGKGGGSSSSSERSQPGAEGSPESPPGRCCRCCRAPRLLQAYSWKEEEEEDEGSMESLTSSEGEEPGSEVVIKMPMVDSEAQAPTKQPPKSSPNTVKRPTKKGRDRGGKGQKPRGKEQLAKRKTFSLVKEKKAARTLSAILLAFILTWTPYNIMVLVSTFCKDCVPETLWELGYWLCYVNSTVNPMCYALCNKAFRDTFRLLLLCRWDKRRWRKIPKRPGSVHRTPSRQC
- test-description: Activation of rat muscarinic M1 receptor expressed in CHO cells co-expressing Gq protein assessed as potentiation of acetylcholine-induced intracellular Ca2+ mobilization at 30 uM relative to acetylcholine
- Assay type: functional, cell-based
I only need the number, in %, no unit after it.

IN: Read the entry O=C1C(=O)N(Cc2ccc(C(F)(F)F)cc2)c2c(Cl)cccc21 and write its reported %max.
OUT: 67

IN: Read the entry COc1cccc(CN2C(=O)C(=O)c3cccc(F)c32)c1 and write its reported %max.
OUT: 51.1

IN: Read the entry O=C1C(=O)N(Cc2c(F)cccc2F)c2c(Cl)cccc21 and write its reported %max.
OUT: 38.8

IN: Read the entry O=C1C(=O)N(Cc2ccc(F)cc2F)c2c(Cl)cccc21 and write its reported %max.
OUT: 64.6

IN: Read the entry COc1cccc(CN2C(=O)C(=O)c3cccc(Cl)c32)c1 and write its reported %max.
OUT: 46.9

IN: Read the entry COc1ccc(CN2C(=O)C(=O)c3cccc(Cl)c32)cc1 and write its reported %max.
OUT: 49.4

IN: Read the entry Cc1ccccc1CN1C(=O)C(=O)c2c(Cl)ccc(Cl)c21 and write its reported %max.
OUT: 13.7

IN: Read the entry O=C1C(=O)N(Cc2ccc(Br)cc2F)c2c(Cl)ccc(Cl)c21 and write its reported %max.
OUT: 9.93

IN: Read the entry O=C1C(=O)N(Cc2ccc(C(F)(F)F)cc2)c2c(F)cccc21 and write its reported %max.
OUT: 60.9

IN: Read the entry O=C1C(=O)N(Cc2ccc(OC(F)(F)F)cc2)c2ccc(OC(F)(F)F)cc21 and write its reported %max.
OUT: 13.8

IN: Read the entry O=C1C(=O)N(Cc2ccccc2F)c2ccc(Cl)cc21 and write its reported %max.
OUT: 23

IN: Read the entry O=C1C(=O)N(Cc2c(F)cccc2F)c2ccc(Cl)cc21 and write its reported %max.
OUT: 27.3

IN: Read the entry Cc1ccccc1CN1C(=O)C(=O)c2cc(Cl)ccc21 and write its reported %max.
OUT: 27.6

IN: Read the entry O=C1C(=O)N(Cc2ccccc2Cl)c2ccc(Cl)cc21 and write its reported %max.
OUT: 21.3

IN: Read the entry Cc1ccc2c(c1)C(=O)C(=O)N2Cc1ccc(Br)cc1F and write its reported %max.
OUT: 22.3

IN: Read the entry O=C1C(=O)N(Cc2ccc(F)cc2F)c2ccccc21 and write its reported %max.
OUT: 44.8

IN: Read the entry O=C1C(=O)N(Cc2ccc(OC(F)(F)F)cc2)c2c(Cl)cccc21 and write its reported %max.
OUT: 43.6

IN: Read the entry COc1cccc(CN2C(=O)C(=O)c3cc(Cl)ccc32)c1 and write its reported %max.
OUT: 16.9

IN: Read the entry O=C1C(=O)N(Cc2ccc(OC(F)(F)F)cc2)c2ccccc21 and write its reported %max.
OUT: 54.7

====

- target-desc: UniProtKB P08912
- Sequence (P08912 whole entry): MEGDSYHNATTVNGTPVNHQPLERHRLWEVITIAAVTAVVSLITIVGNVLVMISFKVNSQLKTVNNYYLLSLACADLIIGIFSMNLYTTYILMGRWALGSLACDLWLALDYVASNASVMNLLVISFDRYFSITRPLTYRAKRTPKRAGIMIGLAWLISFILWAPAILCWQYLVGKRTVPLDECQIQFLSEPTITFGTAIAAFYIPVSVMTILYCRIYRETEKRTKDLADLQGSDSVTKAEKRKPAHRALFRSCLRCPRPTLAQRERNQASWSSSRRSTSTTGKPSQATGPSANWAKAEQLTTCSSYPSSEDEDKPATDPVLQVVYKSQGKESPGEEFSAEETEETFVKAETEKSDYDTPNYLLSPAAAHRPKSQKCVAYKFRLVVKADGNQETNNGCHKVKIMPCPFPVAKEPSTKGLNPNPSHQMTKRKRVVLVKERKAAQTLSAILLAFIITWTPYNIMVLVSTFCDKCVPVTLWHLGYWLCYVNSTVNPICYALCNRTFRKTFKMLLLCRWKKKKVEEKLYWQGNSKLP
- test-description: Activation of human muscarinic M5 receptor expressed in CHO cells coexpressing Gq protein assessed as potentiation of acetylcholine-induced intracellular Ca2+ mobilization at 30 uM relative to acetylcholine
- Assay type: functional, cell-based
assay-metric: %max (%)
I only need the number, in %, no unit after it.

IN: Read the entry O=C1C(=O)N(Cc2ccc(OC(F)(F)F)cc2)c2ccc(Cl)cc21 and write its reported %max.
OUT: 47.1

IN: Read the entry O=C1C(=O)N(Cc2ccccc2C(F)(F)F)c2ccc(Cl)cc21 and write its reported %max.
OUT: 48.4

IN: Read the entry O=C1C(=O)N(Cc2ccc(Br)cc2)c2ccccc21 and write its reported %max.
OUT: 74.4

IN: Read the entry O=C1C(=O)N(Cc2ccc(F)cc2F)c2c(Cl)cccc21 and write its reported %max.
OUT: 61.6

IN: Read the entry O=C1C(=O)N(Cc2ccc(C(F)(F)F)cc2)c2ccc(OC(F)(F)F)cc21 and write its reported %max.
OUT: 67.2

IN: Read the entry Cc1ccccc1CN1C(=O)C(=O)c2cccc(Cl)c21 and write its reported %max.
OUT: 32.6

Source of measurements: ChEMBL document CHEMBL1136933
